Test system: IGROV1 ovarian
test: NCI tumour cell line growth inhibition, 48 h
measurement_type: GI50

See these solved cases before continuing.
[[record]]
chemical_string = "C#CCSc1cc(Cl)c(C)cc1S(=O)(=O)Nc1nc2ccccc2o1"
reported_measurement = "34.8 µM"

[[record]]
chemical_string = "Cc1csc(/C=C/C(=O)c2nnn(-c3ccnc4c(C(F)(F)F)cccc34)c2C)c1"
reported_measurement = "> 100 µM"

[[record]]
chemical_string = "CC(=O)C1=C(O)C=C2Oc3c(C(=O)/C=C/c4c(Cl)cccc4Cl)c(O)c(C)c(O)c3[C@]2(C)C1=O"
reported_measurement = "1.56 µM"


Shift focus to the following entry.
Ask: Which value of GI50 has been reported for `Cn1c2c(c3ccc([N+](=O)[O-])cc3c1=O)C(=O)c1ccccc1-2` in the records?
Reply: > 100 µM

----------
Tested on: COLO 205 colon
test: NCI tumour cell line growth inhibition, 48 h; in the data active = GI50 below about 0.43 µM; inactive = the rest
Allowed answers: active, inactive

[[record]]
compound = "O=C(c1ccccc1)C(CN1CCCCC1)c1ccccc1 (stereo unspecified)"
qualitative_label = "inactive"

[[record]]
compound = "O=C(c1ccccc1)C1OC1c1ccc([N+](=O)[O-])cc1 (stereo unspecified)"
qualitative_label = "inactive"

[[record]]
compound = "CO/N=C(\\C)c1ccc(Nc2cc(-c3ccccc3)nc3ccc(OC)cc23)cc1"
qualitative_label = "inactive"


Ask: Can you look up the reported call for `O=C(Cc1ccc(F)c(F)c1)Nc1cc(C2(C(F)(F)F)CC2)nn1Cc1ccccc1` for me?
Reply: inactive

----------
Test system: 786-0 renal
test: NCI tumour cell line growth inhibition, 48 h
measurement_type: TGI

See these solved cases before continuing.
[[record]]
compound = "CC1=C(c2ccccc2)NC(=S)C(C)C(c2ccccc2)=N1 (stereo not given)"
measurement_type = "TGI"
reported_measurement = "> 100 µM"

[[record]]
compound = "C[C@]12CC/C(=N\\O)C=C1CC[C@@H]1C2CC[C@@]2(C)C1CC[C@@H]2OC1CCCCO1 (stereo not given in full)"
measurement_type = "TGI"
reported_measurement = "33.3 µM"

[[record]]
compound = "COc1cc(C(=O)N2CCN(c3ncnc4ccccc34)CC2)c(N)cc1OCc1ccccc1"
measurement_type = "TGI"
reported_measurement = "26.2 µM"

[[record]]
compound = "CC1SCc2nc3ccccc3n21 (stereo not given)"
measurement_type = "TGI"
reported_measurement = "> 100 µM"

[[record]]
compound = "Cc1cc(/C=C/c2cc[n+](C)c3ccccc23)c(O)c2ncccc12"
measurement_type = "TGI"
reported_measurement = "14.3 µM"


Ask: Which value of TGI has been reported for CCC(=O)Nc1ccc(NC(C#N)c2cccc(Oc3ccccc3)c2)cc1 (stereo not given) in the records?
Reply: > 100 µM

Ask: Which value of TGI has been reported for `O=c1[nH]nc(Cc2c[nH]c3ccccc23)o1` in the records?
Reply: > 100 µM

Ask: Which value of TGI has been reported for COc1cc(C2SCC(=O)N2c2ncc(C)s2)cc(OC)c1OC (stereo not given) in the records?
Reply: > 50 µM

Ask: Which value of TGI has been reported for `CCOC(=O)c1cc2c(cc1Cl)SC(N(c1ccc(OC)cc1)S(=O)(=O)c1ccc(Cl)cc1)=NS2(=O)=O` in the records?
Reply: > 100 µM

Ask: Which value of TGI has been reported for `C=CCN(C(=O)OC(C)(C)C)[C@H](C)C(=O)N[C@@H](C)C(=O)OC` in the records?
Reply: > 100 µM

----------
Tested on: MCF7 breast
test: NCI tumour cell line growth inhibition, 48 h; in the data active means GI50 below about 0.43 µM; inactive means the rest
Allowed answers: TRUE (active), FALSE (inactive)

Solved entries (count: 6):
[[record]]
compound = "C=CC(=O)Nc1cc(C)ccc1Nc1nc(Nc2cc(OC)ncc2C)ncc1C(F)(F)F"
qualitative_label = "FALSE"

[[record]]
compound = "CC(C)=CCC[C@](C)(O)[C@H]1CC[C@]2(C)[C@@H]1CC[C@@H]1[C@@]3(C)CC/C(=N/O)C(C)(C)[C@@H]3CC[C@]12C"
qualitative_label = "FALSE"

[[record]]
compound = "CCC(=C/[C@H](C)C/C=C/C(C)=C/[C@@H](C)C(=O)[C@@H](C)[C@H](O)[C@@H](C)CC)/C=C/[C@@H]1OC(=O)C=C[C@H]1C"
qualitative_label = "TRUE"

[[record]]
compound = "Oc1ccc(-c2nc3ccccc3s2)cc1CN(Cc1ccccn1)Cc1ccccn1"
qualitative_label = "FALSE"

[[record]]
compound = "O=C(Nc1ccncc1)C(=O)c1cn(S(=O)(=O)c2ccc(Cl)cc2)c2ccccc12"
qualitative_label = "TRUE"

[[record]]
compound = "Cn1c2c(c3ccc([N+](=O)[O-])cc3c1=O)C(=O)c1ccccc1-2"
qualitative_label = "FALSE"


Ask: Can you look up the reported call for `CC(C)(C)c1cc(-n2c(-c3ccc(Cl)cc3)nc3cc(C(=O)Nc4ccc(Cl)cc4)ccc32)n[nH]1` for me?
Reply: FALSE

----------
Test system: SNB-19 CNS
test: NCI tumour cell line growth inhibition, 48 h; in the data active = GI50 below about 0.43 µM; inactive = the rest
Allowed answers: active, inactive

[[record]]
molecule = "CCC(=C/[C@H](C)C/C=C/C(C)=C/[C@@H](C)C(=O)[C@@H](C)[C@H](O)[C@@H](C)CC)/C=C/[C@@H]1OC(=O)C=C[C@H]1C"
qualitative_label = "active"

[[record]]
molecule = "CCOC(=O)c1cc2c(cc1Cl)SC(N(c1ccc(OC)cc1)S(=O)(=O)c1ccc(Cl)cc1)=NS2(=O)=O"
qualitative_label = "inactive"

[[record]]
molecule = "COCc1cc(C(=O)Nc2cc([C@H]3CC[C@@H](OC(=O)NC(C)C)C3)[nH]n2)n(C)n1"
qualitative_label = "inactive"


Ask: Can you look up the reported call for COc1cc(C2SCC(=O)N2c2ncc(C)s2)cc(OC)c1OC (configuration not stated) for me?
Reply: inactive

Ask: Can you look up the reported call for CCN(CC)CC(O)CNc1c2ccc([N+](=O)[O-])cc2nc2cc(OC)c(OC)cc12 (configuration not stated) for me?
Reply: active

Ask: Can you look up the reported call for `O=c1cc(-c2cccc3c2Sc2ccccc2S3)oc(N2CCOCC2)c1` for me?
Reply: inactive

Ask: Can you look up the reported call for `Cc1csc(/C=C/C(=O)c2nnn(-c3ccnc4c(C(F)(F)F)cccc34)c2C)c1` for me?
Reply: inactive

----------
System: K-562 leukemia
test: NCI tumour cell line growth inhibition, 48 h
measurement_type: TGI

See these solved cases before continuing.
[[record]]
molecule = "CCOC(=O)N1CCC(=O)C(CNC23CC4CC(CC(C4)C2)C3)C1 (centres undefined)"
measurement_type = "TGI"
reported_measurement = "31.2 µM"

[[record]]
molecule = "Cc1nc2ccccc2c(/C=C/c2ccc(Cl)cc2)c1C(=O)/C=C/c1ccc(C(F)(F)F)cc1"
measurement_type = "TGI"
reported_measurement = "> 100 µM"

[[record]]
molecule = "O=c1c(Br)cc2nc3ccccc3sc-2c1Br"
measurement_type = "TGI"
reported_measurement = "55.5 µM"

[[record]]
molecule = "Cc1nc(-c2cn3c(n2)-c2ccc(-c4cnn(C(C)(C)C(N)=O)c4)cc2OCC3)n(C(C)C)n1"
measurement_type = "TGI"
reported_measurement = "> 75.7 µM"

[[record]]
molecule = "CC(=O)C1C(c2ccc(N(C)C)cc2)c2cc3c(cc2OC1(C)O)OCO3 (centres undefined)"
measurement_type = "TGI"
reported_measurement = "63.5 µM"

[[record]]
molecule = "COc1cccc(NC(=O)c2sc3nc(C)c(C(O)c4ccccc4)cc3c2N)c1 (centres undefined)"
measurement_type = "TGI"
reported_measurement = "> 100 µM"

[[record]]
molecule = "C/C=C(\\C)C(O)C(C)C(O)C/C=C(C)/C=C(\\C)C/C(C)=C/C/C=C(\\C)C(O)C(C)c1ccc(CCC)c(=O)o1 (centres undefined)"
measurement_type = "TGI"
reported_measurement = "> 100 µM"

[[record]]
molecule = "O=C(CN1CCOCC1)c1ccc2c(c1)oc(=O)n2CCN1CCOCC1"
measurement_type = "TGI"
reported_measurement = "> 100 µM"

[[record]]
molecule = "Oc1ccc(-c2nc3ccccc3s2)cc1CN(Cc1ccccn1)Cc1ccccn1"
measurement_type = "TGI"
reported_measurement = "35.5 µM"

[[record]]
molecule = "C[C@@]12CCC[C@@](C)(C(=O)O)C1CC[C@]13C[C@@](O)(CO)[C@](O)(CCC12)C3 (some centres undefined)"
measurement_type = "TGI"
reported_measurement = "> 100 µM"


Ask: Which value of TGI has been reported for `COC(=O)c1ccc(N=NN(C)COc2ccc(Br)cc2)cc1` in the records?
Reply: > 100 µM

Ask: Which value of TGI has been reported for `CCOC(=O)c1cc2/c(=C\c3ccc(N(C)C)cc3)c3ccccc3n2[n+]1C` in the records?
Reply: > 58 µM

Ask: Which value of TGI has been reported for O=C1CSC(c2ccccc2[N+](=O)[O-])N1c1ccc(-c2ccc(-n3c(-c4ccccc4)nc4ccccc4c3=O)cc2)cc1 (centres undefined) in the records?
Reply: > 100 µM

Ask: Which value of TGI has been reported for `COc1ccc(/C(Cl)=C(\C=N/O)c2ccc(OC)c(OC)c2)cc1OC` in the records?
Reply: > 100 µM

Ask: Which value of TGI has been reported for `CCOC(=O)C1=CCOc2cc(N(C)C)ccc21` in the records?
Reply: > 100 µM

Ask: Which value of TGI has been reported for CC(=O)OCC1OC(n2c(-c3ccccc3)c(C(C)=O)c(-c3cccc4ccccc34)c(C#N)c2=S)C(OC(C)=O)C(OC(C)=O)C1OC(C)=O (centres undefined) in the records?
Reply: > 100 µM

Ask: Which value of TGI has been reported for `CS(=O)(=O)CCc1cccc(C(=O)c2cnn(-c3ccc(F)cc3)c2N)c1` in the records?
Reply: > 25 µM

Ask: Which value of TGI has been reported for CN1C(=O)C2C3C=C4c5ccccc5N(c5ccccc5)C4(C2C1=O)[C@H]1C(=O)N(C)C(=O)[C@@H]31 (some centres undefined) in the records?
Reply: > 100 µM

Ask: Which value of TGI has been reported for Nc1nc2ncc(CNc3ccc(C(=O)NC(CCC(=O)O)C(=O)O)cc3)nc2c(=O)[nH]1 (centres undefined) in the records?
Reply: > 100 µM
